Readout Name: melting point

# annotated cases, reported melting point shown
{"columns": ["Molecule", "Value Observed"],
 "data": [
  ["CCOC(=O)CON(C)C(=S)Nc1ccc(Cl)cc1C [Example 2]", "104 to 106 °C"],
  ["CCOC(=O)CON(C(=S)Nc1cc(Cl)ccc1C)C(C)C [Example 9]", "83 to 85 °C"],
  ["CCOC(=O)CON(CC)C(=S)Nc1ccc(Cl)cc1C [Example 8]", "69 to 71 °C"]
]}

Data request: Identify measured melting point associated with CCOC(=O)CON(C)C(=S)Nc1ccc2c(c1)CCC2 [Example 3]
Data returned: 69 to 71 °C

Data request: Identify measured melting point associated with CCOC(=O)CON(C)C(=S)Nc1cc(Cl)ccc1C [Example 1]
Data returned: 83 to 84 °C
